Just for reference, patent US10112899B2 is where these values come from.

- Tested on: HIV in the HTLV-1 transformed cell line MT-4
- PROTOCOL_DETAILS: organism not typed
- Format: cell-based
- STUDY_CONDITIONS: MT4, 96 h, MT-4 cells; luciferase/cell titer glo readout after 96 hours; 10 point dose response
Kindly supply the reported log10 of IC50 values for the records listed here.
Units before log transform: µM; reported quantity: IC50; transform: log10.

Exam item: What log10 of IC50 value was documented for this compound, `COc1cccc(C(=O)N2Cc3c(C)c(-c4ccc(C)cc4)c([C@H](OC(C)(C)C)C(=O)O)c(C)c3C2)c1OC` ?
Marked response: -1.32

Exam item: What log10 of IC50 value was documented for this compound, Cc1c(-c2c(C)c3c(c(C)c2[C@H](OC(C)(C)C)C(=O)O)CN(C(=O)c2cccc4c2OCC4)C3)cc(F)c2c1CCCO2 (atropisomer, axis not shown; (M)) ?
Marked response: -2.70

Exam item: What log10 of IC50 value was documented for this compound, `Cc1ccc(-c2c(C)c3c(c(C)c2[C@H](OC(C)(C)C)C(=O)O)CN(C(=O)[C@H]2CCOC2)C3)cc1` ?
Marked response: -1.43

Exam item: What log10 of IC50 value was documented for this compound, `Cc1ccc(-c2c(C)c3c(c(C)c2[C@H](OC(C)(C)C)C(=O)O)CN(C(=O)N2CCC[C@@H]2C)C3)cc1` ?
Marked response: -2.30

Exam item: What log10 of IC50 value was documented for this compound, `Cc1ccc(-c2c(C)c3c(c(C)c2[C@H](OC(C)(C)C)C(=O)O)CN(CCc2ccccc2)C3)cc1` ?
Marked response: -0.06

Exam item: What log10 of IC50 value was documented for this compound, `Cc1ccc(-c2c(C)c3c(c(C)c2[C@H](OC(C)(C)C)C(=O)O)CN(C(=O)c2ccc4c(c2)OCCO4)C3)cc1` ?
Marked response: -1.89

Exam item: What log10 of IC50 value was documented for this compound, COc1c(F)cccc1C(=O)N1Cc2c(C)c(-c3cc(F)c4c(c3C)CCCO4)c([C@H](OC(C)(C)C)C(=O)O)c(C)c2C1 (atropisomer, axis not shown; (M)) ?
Marked response: -2.52

Exam item: What log10 of IC50 value was documented for this compound, `Cc1ccc(-c2c(C)c3c(c(C)c2[C@H](OC(C)(C)C)C(=O)O)CN(CC2CCOCC2)C3)cc1` ?
Marked response: -0.09

Exam item: What log10 of IC50 value was documented for this compound, `COc1ccc(CN2Cc3c(C)c(-c4ccc(C)cc4)c([C@H](OC(C)(C)C)C(=O)O)c(C)c3C2)cc1` ?
Marked response: -0.47

Exam item: What log10 of IC50 value was documented for this compound, COC1CCC(C(=O)N2Cc3c(C)c(-c4ccc(C)cc4)c([C@H](OC(C)(C)C)C(=O)O)c(C)c3C2)CC1 (stereo partly shown) ?
Marked response: -1.51

Exam item: What log10 of IC50 value was documented for this compound, COC1CCCC(C(=O)N2Cc3c(C)c(-c4ccc(C)cc4)c([C@H](OC(C)(C)C)C(=O)O)c(C)c3C2)C1 (stereo partly shown) ?
Marked response: -1.85

Exam item: What log10 of IC50 value was documented for this compound, `CNC(=O)c1cccc(CN2Cc3c(C)c(-c4ccc(C)cc4)c([C@H](OC(C)(C)C)C(=O)O)c(C)c3C2)c1` ?
Marked response: -0.03

Exam item: What log10 of IC50 value was documented for this compound, `Cc1ccc(-c2c(C)c3c(c(C)c2[C@H](OC(C)(C)C)C(=O)O)CN(Cc2cccc4c2OCCO4)C3)cc1` ?
Marked response: -1.82
